- Tested on: Stellaria media (STEME)
- method.notes: Post-emergence glasshouse spray test, visual percentage phytotoxicity after 13 days
- Type: in vivo
- run.parameters: B1; 10 g/ha post-emergence
quantity.measured: STEME percentage phytotoxicity (%)
Report only the number, with the unit % understood.

Any idea what STEME percentage phytotoxicity was measured for `COc1c(Cl)ccc(-c2nc(C(=O)OCc3ccccc3)c(Cl)c(N)c2F)c1F` ?
85

Tell me the measured STEME percentage phytotoxicity of `FC(F)c1cc(-c2c(Cl)cccc2Oc2ncc(Cl)cn2)on1` , please.
98

I have this molecule here, `Nc1c(F)c(-c2ccc3cc[nH]c3c2F)nc(C(=O)O)c1Cl` , and I need its recorded STEME percentage phytotoxicity.
90

Looking for the measured STEME percentage phytotoxicity of `CS(=O)(=O)c1ccc(C(=O)C2C(=O)CCCC2=O)c(Cl)c1OCCC1OCCO1` , can you help?
38
